Value source: patent US12624044B2

molecular target: SMARCA4 (Homo sapiens); construct: SMARCA2 and SMARCA4 protein degradation in MV4-11 cells; endogenous in cells; host or cells: MV4-11; assay: SMARCA4 Western blot MV4-11 degradation; type: cell-based; settings: MV4-11 cells, 24 h, read-out: SMARCA4 WB MV411 degradation 24 h: Average external-Abs DC50
Sequence (P51532 whole entry): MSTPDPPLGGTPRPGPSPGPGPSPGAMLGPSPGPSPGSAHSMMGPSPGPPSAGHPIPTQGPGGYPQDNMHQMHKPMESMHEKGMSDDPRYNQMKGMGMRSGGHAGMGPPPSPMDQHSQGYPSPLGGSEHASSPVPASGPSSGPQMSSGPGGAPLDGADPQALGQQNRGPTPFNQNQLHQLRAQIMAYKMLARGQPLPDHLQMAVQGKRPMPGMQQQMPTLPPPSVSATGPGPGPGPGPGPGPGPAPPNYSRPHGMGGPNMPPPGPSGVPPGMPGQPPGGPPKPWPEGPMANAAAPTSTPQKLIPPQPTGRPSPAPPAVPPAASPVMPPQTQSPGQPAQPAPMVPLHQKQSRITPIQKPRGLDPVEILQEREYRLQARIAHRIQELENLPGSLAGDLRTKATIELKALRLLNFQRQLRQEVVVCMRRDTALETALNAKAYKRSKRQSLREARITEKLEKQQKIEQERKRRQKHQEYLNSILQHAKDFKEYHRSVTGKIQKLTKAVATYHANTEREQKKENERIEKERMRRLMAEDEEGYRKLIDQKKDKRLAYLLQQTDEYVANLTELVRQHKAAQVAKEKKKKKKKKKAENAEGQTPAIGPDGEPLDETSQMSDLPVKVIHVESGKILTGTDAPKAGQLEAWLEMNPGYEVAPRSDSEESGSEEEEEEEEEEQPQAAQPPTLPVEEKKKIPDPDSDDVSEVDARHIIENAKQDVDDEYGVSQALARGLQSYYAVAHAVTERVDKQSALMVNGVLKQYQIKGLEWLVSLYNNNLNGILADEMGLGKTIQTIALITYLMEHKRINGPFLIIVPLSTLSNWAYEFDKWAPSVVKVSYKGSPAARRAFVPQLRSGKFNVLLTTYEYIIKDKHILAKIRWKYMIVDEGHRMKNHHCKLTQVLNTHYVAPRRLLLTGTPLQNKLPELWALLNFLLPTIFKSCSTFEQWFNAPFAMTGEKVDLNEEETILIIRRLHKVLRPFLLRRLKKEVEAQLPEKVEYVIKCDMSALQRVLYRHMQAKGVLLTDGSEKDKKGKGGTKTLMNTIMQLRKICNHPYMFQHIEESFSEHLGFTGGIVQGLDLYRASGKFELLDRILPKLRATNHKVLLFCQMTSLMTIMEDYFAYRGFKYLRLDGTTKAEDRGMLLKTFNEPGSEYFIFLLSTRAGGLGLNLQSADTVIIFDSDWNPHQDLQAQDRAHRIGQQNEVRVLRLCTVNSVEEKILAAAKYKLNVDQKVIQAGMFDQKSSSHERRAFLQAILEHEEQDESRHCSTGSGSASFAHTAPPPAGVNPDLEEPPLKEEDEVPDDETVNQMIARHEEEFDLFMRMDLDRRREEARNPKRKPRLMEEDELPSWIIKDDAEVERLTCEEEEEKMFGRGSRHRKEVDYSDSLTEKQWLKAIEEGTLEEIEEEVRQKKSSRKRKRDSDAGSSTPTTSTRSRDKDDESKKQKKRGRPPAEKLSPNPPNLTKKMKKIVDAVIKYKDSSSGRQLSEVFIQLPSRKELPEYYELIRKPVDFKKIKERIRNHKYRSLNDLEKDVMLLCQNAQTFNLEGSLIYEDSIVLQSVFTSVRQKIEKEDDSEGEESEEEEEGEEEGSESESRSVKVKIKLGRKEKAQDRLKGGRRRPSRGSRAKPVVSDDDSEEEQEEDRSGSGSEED
Parameter DC50: see the listing below.

Compound: Cc1ncsc1-c1ccc(CNC(=O)[C@@H]2C[C@@H](O)CN2C(=O)[C@@H](NC(=O)CN2CCN([C@H]3CC[C@H](c4cnc(N5C6CCC5CN(c5cc(-c7ccccc7O)nnc5N)C6)nc4)CC3)CC2)C(C)(C)C)cc1 (single isomer, unassigned)
DC50: < 100 nM
--
Compound: CN(CCCc1cnc(N2C3CCC2CN(c2cc(-c4ccccc4O)nnc2N)C3)nc1)Cc1cccc2c1n(C)c(=O)n2C1CCC(=O)NC1=O (stereo not shown)
DC50: < 100 nM
--
Compound: Nc1nnc(-c2ccccc2O)cc1N1CC2CCC(C1)N2c1ncc(C2CCN(CCCCCNC(=O)COc3ccc4c(c3)CCCN4C(=O)CCl)CC2)cn1
DC50: > 1000 nM
--
Compound: Cc1ncsc1-c1ccc(CNC(=O)[C@@H]2C[C@@H](O)CN2C(=O)[C@@H](NC(=O)CN2C3CCC2CC(c2cnc(N4C5CCC4CN(c4cc(-c6ccccc6O)nnc4N)C5)nc2)C3)C(C)(C)C)cc1 (stereo partly shown)
DC50: > 1000 nM
--
Compound: Cc1ncsc1-c1ccc(CNC(=O)[C@@H]2C[C@@H](O)CN2C(=O)[C@@H](NC(=O)CN2CCC[C@@H](Cn3cc(-c4cc(-c5ccccc5O)nnc4N)cn3)C2)C(C)(C)C)cc1
DC50: 100 to 500 nM
--
Compound: Cc1ncsc1-c1ccc(CNC(=O)[C@@H]2C[C@@H](O)CN2C(=O)[C@@H](NC(=O)[C@H]2CC[C@@H](N3CCC(c4cnc(N5C6CCC5CN(c5cc(-c7ccccc7O)nnc5N)C6)nc4)CC3)CC2)C(C)(C)C)cc1
DC50: > 1000 nM
--
Compound: Cc1ncsc1-c1ccc(CNC(=O)[C@@H]2C[C@@H](O)CN2C(=O)[C@@H](NC(=O)CCCN2CCC(Cn3cc(-c4cc(-c5ccccc5O)nnc4N)cn3)CC2)C(C)(C)C)cc1
DC50: 100 to 500 nM
--
Compound: Cc1ncsc1-c1ccc(CNC(=O)[C@@H]2C[C@@H](O)CN2C(=O)[C@@H](NC(=O)C2CCN(Cc3cnc(N4C5CCC4CN(c4cc(-c6ccccc6O)nnc4N)C5)nc3)CC2)C(C)(C)C)cc1 [I-338]
DC50: < 100 nM
--
Compound: Cn1c(=O)n(C2CCC(=O)NC2=O)c2ccc([C@H]3CC[C@@H](N4CCC(c5nccc(N6C7CCC6CN(c6cc(-c8ccccc8O)nnc6N)C7)n5)CC4)CC3)cc21 (stereo partly shown)
DC50: < 100 nM
--
Compound: Nc1nnc(-c2ccccc2O)cc1-c1cnn(C2CCN(C3CCC(Nc4cccc5c4C(=O)N(C4CCC(=O)NC4=O)C5=O)CC3)CC2)c1 (stereo not shown)
DC50: < 100 nM

----------
molecular target: SMARCA2 (Homo sapiens, UniProt P51531); test: SMARCA2 Western blot MV4-11 degradation; format: cell-based; details: MV4-11, MV4-11 cells, 24 h, read-out: SMARCA2 WB MV411 degradation 24 h: Average Dmax %
Sequence (P51531 whole entry): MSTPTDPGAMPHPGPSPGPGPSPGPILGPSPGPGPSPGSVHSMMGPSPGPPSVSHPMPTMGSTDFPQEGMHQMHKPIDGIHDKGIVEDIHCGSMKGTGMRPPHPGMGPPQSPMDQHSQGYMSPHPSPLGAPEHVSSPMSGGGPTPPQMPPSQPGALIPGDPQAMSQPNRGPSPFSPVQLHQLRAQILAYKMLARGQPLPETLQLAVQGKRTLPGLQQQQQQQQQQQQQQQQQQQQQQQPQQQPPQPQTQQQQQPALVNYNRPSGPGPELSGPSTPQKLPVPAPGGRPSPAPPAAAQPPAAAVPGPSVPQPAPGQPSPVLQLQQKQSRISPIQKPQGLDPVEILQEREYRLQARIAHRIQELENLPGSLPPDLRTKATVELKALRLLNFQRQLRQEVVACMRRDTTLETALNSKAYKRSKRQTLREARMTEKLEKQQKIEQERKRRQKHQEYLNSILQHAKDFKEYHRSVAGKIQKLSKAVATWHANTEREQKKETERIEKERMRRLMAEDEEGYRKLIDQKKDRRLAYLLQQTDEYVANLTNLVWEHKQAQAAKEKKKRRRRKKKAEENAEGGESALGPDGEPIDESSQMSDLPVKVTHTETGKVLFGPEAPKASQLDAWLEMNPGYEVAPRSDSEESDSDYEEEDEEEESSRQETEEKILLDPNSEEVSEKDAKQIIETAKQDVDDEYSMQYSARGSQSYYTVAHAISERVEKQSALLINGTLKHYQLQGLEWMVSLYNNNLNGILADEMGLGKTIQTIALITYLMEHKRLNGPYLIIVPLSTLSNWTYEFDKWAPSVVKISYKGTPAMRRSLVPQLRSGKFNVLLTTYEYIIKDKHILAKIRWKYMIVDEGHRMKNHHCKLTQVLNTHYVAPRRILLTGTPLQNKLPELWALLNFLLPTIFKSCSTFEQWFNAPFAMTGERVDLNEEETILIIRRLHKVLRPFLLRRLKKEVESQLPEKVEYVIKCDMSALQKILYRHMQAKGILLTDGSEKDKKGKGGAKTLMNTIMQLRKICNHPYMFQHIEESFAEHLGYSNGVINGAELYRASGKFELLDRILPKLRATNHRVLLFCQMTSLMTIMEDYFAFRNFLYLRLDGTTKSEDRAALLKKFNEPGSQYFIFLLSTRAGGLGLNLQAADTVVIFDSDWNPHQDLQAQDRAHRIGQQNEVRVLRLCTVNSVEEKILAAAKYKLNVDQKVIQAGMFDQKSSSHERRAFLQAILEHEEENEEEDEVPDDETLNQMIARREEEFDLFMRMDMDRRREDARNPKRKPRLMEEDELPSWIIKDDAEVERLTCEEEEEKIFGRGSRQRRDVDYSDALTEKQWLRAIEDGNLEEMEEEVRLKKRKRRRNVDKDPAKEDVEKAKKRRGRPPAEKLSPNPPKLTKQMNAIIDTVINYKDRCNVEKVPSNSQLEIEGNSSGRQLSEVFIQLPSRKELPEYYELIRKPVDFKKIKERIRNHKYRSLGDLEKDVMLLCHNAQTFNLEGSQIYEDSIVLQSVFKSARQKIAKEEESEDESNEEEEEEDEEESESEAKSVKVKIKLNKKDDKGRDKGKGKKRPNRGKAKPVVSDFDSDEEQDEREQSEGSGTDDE

Molecule: Cc1ncsc1-c1ccc(CNC(=O)[C@@H]2C[C@@H](O)CN2C(=O)[C@@H](NC(=O)[C@H]2CC3(C2)C[C@H](c2cnc(N4C5CCC4CN(c4cc(-c6ccccc6O)nnc4N)C5)nc2)C3)C(C)(C)C)c(C(F)(F)F)c1 (stereo partly drawn)
Dmax: > 90%

Molecule: Cn1c(=O)n(C2CCC(=O)NC2=O)c2cccc(C3CCC(N4CCC(n5cc(-c6cc(-c7ccccc7O)nnc6N)cn5)CC4)CC3)c21 (stereo not drawn)
Dmax: > 90%

Molecule: Cc1ncsc1-c1ccc(CNC(=O)[C@@H]2C[C@@H](O)CN2C(=O)[C@@H](NC(=O)[C@H]2CC[C@H](Cc3ccc(-c4cnc(N5C6CCC5CN(c5cc(-c7ccccc7O)nnc5N)C6)nc4)cc3)CC2)C(C)(C)C)cc1
Dmax: > 90%
